- experimental_target: human chemokine receptor 2 isoform B (Homo sapiens, UniProt P41597)
- Sequence (P41597 1-360 isoform P41597-2): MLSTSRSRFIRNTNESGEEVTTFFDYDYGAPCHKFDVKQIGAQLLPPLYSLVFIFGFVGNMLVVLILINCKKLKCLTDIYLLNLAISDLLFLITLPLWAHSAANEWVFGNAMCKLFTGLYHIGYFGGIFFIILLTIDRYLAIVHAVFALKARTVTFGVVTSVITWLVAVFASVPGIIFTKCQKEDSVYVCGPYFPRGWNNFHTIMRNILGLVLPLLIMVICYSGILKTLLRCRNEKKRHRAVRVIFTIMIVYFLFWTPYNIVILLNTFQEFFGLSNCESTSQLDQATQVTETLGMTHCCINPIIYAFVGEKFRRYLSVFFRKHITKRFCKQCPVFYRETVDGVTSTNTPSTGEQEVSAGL
- procedure_summary: Calcium mobilization assay
- condition_details: Ca mobilization assay for CCR2; CHOK1-CCR2B-A5 cells; antagonist activity against 20 nM MCP-1; FLIPR, Fluo-4
readout: log10 of IC50 (log10 of the value in nM)
In our notation, the value equals log10 of IC50 in nM.

Field: example entries. Status: answers known.
*Q* Please supply the value of reported log10 of IC50 for the item O=C1CCN(c2cccc(C(F)(F)F)c2)CCN1C(CO)CCN1CCC2(CC2)[C@H](O)C1 (stereo partly shown)
*A* 1.00

*Q* Please supply the value of reported log10 of IC50 for the item O=C1CCN(c2cccc(C(F)(F)F)c2)CCN1[C@H](CO)CCN1CCC2(CC2)[C@H](O)C1
*A* 1.00

*Q* Please supply the value of reported log10 of IC50 for the item O=C1CCN(c2cccc(C(F)(F)F)c2)CCN1[C@@H](CO)CCN1CCC2(CC2)[C@H](O)C1
*A* 2.26

*Q* Please supply the value of reported log10 of IC50 for the item CC1C(=O)N(CCCN2CCCCC2)CCN1c1ccc(Cl)c(Cl)c1 (stereo not shown)
*A* 2.35

*Q* Please supply the value of reported log10 of IC50 for the item CC1C(=O)N(C(CCN2CCC3(CC3)[C@H](O)C2)C(=O)O)CCN1c1cccc(OC(F)(F)F)c1 (stereo partly shown)
*A* 1.48

For every record below, what is its log10 of IC50?
1. NC(=O)[C@H](CCN1CCC2(CC2)[C@H](O)C1)N1CCN(c2ccc(Cl)c(Cl)c2)CCC1=O
2. CC1C(=O)N(CCCN2CCC3(CC3)[C@H](O)C2)CCN1c1cccc(-c2ccccc2)c1 (stereo partly shown)
3. O=C1CCN(c2cccc(OC(F)(F)F)c2)CCN1[C@H](CO)CCN1CCC2(CC2)[C@H](O)C1
4. CN(CCO)C(=O)[C@H](CCN1CCC2(CC2)[C@H](O)C1)N1CCN(c2ccc(Cl)c(Cl)c2)CCC1=O
5. C[C@H]1C(=O)N(CCCN2CCC3(CC3)[C@H](O)C2)CCN1c1ccc(Cl)c(C(F)(F)F)c1

*A*
1: 2.82; 2: 2.71; 3: 1.00; 4: 1.88; 5: 0.85

---

- experimental_target: human chemokine receptor 2 isoform B (Homo sapiens)
- procedure_summary: Calcium mobilization assay
- condition_details: Ca mobilization assay for CCR2; CHOK1-CCR2B-A5 cells; antagonist activity against 20 nM MCP-1; FLIPR, Fluo-4
Assignment: determine reported IC50 for the given compounds.
Give bare numbers, in nM.

*Q* Please supply the value of reported IC50 for the item CC[C@@H]1C(=O)N(CCCN2CCC3(CC3)[C@H](O)C2)CCN1c1ccc(Cl)c(Cl)c1
*A* 325

*Q* Please supply the value of reported IC50 for the item COC(=O)C(CCN1CCC2(CC2)[C@H](O)C1)N1CCN(c2cccc(C(F)(F)F)c2)CCC1=O (stereo partly shown)
*A* 60

*Q* Please supply the value of reported IC50 for the item CC1CN([C@@H](CO)CCN2CCC3(CC3)[C@H](O)C2)C(=O)CCN1c1ccc(Cl)c(Cl)c1 (mixture of isomers)
*A* 46

Next:
*Q* Please supply the value of reported IC50 for the item C[C@H]1C(=O)N(C[C@H](O)CN2CCC3(CC3)[C@H](O)C2)CCN1c1ccc(Cl)c(Cl)c1
*A* 73

---

- experimental_target: human chemokine receptor 2 isoform B (Homo sapiens)
- Sequence (P41597 1-360 isoform P41597-2): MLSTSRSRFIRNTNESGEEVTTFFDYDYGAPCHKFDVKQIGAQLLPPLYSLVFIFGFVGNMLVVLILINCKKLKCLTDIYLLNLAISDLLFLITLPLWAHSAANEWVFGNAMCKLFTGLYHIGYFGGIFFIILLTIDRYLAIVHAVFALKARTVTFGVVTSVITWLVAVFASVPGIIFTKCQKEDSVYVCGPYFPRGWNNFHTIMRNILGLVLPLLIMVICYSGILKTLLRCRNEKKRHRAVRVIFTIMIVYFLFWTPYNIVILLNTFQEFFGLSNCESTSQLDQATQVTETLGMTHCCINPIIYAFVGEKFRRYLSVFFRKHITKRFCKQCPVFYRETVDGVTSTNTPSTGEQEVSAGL
- procedure_summary: Calcium mobilization assay
- condition_details: Ca mobilization assay for CCR2; CHOK1-CCR2B-A5 cells; antagonist activity against 20 nM MCP-1; FLIPR, Fluo-4
readout: pIC50
One number for each entry, as −log10 of the molar value.

Field: example entries. Status: answers known.
*Q* Name the value of pIC50 reported for CN(C)C(=O)C(CCCN1CCC(C)(O)CC1)N1CCN(c2cccc(C(F)(F)F)c2)CCC1=O (racemic) [Example 25] when tested on human chemokine receptor 2 isoform B (Homo sapiens).
*A* 6.70

*Q* Name the value of pIC50 reported for C[C@H]1C(=O)N(CCCCN2CCC3(CC3)[C@H](O)C2)CCN1c1cccc(OC(F)(F)F)c1 [Example 95] when tested on human chemokine receptor 2 isoform B (Homo sapiens).
*A* 7.89

For every record below, what is its pIC50?
1. COC(=O)[C@H](CCN1CCC2(CC2)[C@H](O)C1)N1CCN(c2cccc(OC(F)(F)F)c2)CCC1=O [Example 13]
2. C[C@H]1C(=O)N(C[C@@H](O)CCN2CCC3(CC3)[C@H](O)C2)CCN1c1ccc(Cl)c(Cl)c1 [Example 105]
3. C[C@H]1C(=O)N(CCCN2CCC3(CC3)[C@H](O)C2)CCN1c1ccc(C(F)(F)F)cc1 [Example 96]
4. O=C1CCN(c2ccc(C(F)(F)F)cc2)CCN1[C@H](CO)CCN1CCC2(CC2)[C@H](O)C1 [Example 20]
5. CC1C(=O)N(CCCN2CCCCC2)CCN1c1cccc(OC(F)(F)F)c1 (stereo not drawn) [Example 41]

*A*
7.52
7.57
7.59
6.46
6.24

For every record below, what is its pIC50?
1. C[C@@H]1C(=O)N(C[C@H](O)CN2CCC3(CC3)[C@H](O)C2)CCN1c1ccc(Cl)c(Cl)c1 [Example 100]
2. CN(C)C(=O)[C@H](CCN1CCC2(CC2)[C@H](O)C1)N1CCN(c2ccc(Cl)c(Cl)c2)CCC1=O [Example 59]
3. O=C1CCN(c2ccc(OC(F)(F)F)cc2)CCN1[C@H](CO)CCN1CCC2(CC2)[C@H](O)C1 [Example 12]
4. C[C@H]1C(=O)N(CCCN2CCC3(CC3)[C@H](O)C2)CCN1c1ccc(Cl)c(OC(F)(F)F)c1 [Example 84]
5. COC(=O)[C@H](CCN1CCC2(CC2)[C@H](O)C1)N1C[C@H](C)N(c2ccc(Cl)c(Cl)c2)CCC1=O [Example 66]

*A*
1: 6.48; 2: 7.10; 3: 6.92; 4: 7.82; 5: 6.26

For every record below, what is its pIC50?
1. O=C1CCN(c2cccc(Cl)c2)CCN1[C@H](CO)CCN1CCC2(CC2)[C@H](O)C1 [Example 4]
2. COC(=O)[C@H](CCN1C[C@@H](C)C[C@H](O)C1)N1CCN(c2cccc(C(F)(F)F)c2)CCC1=O [Example 7]
3. COC(=O)[C@H](CCN1CCC2(CC2)[C@H](O)C1)N1CCN(c2ccc(C(F)(F)F)cc2)CCC1=O [Example 19]

*A*
7.22
7.05
6.39

---

- experimental_target: human chemokine receptor 2 isoform B (Homo sapiens, UniProt P41597)
- procedure_summary: Calcium mobilization assay
- condition_details: Ca mobilization assay for CCR2; CHOK1-CCR2B-A5 cells; antagonist activity against 20 nM MCP-1; FLIPR, Fluo-4
readout: pIC50
Numbers only, as −log10 of the molar value.

*Q* Please supply the value of reported pIC50 for the item C[C@@H]1C(=O)N(CCCN2CCC3(CC3)[C@H](O)C2)CCN1c1ccc(C(F)(F)F)c(F)c1
*A* 7.04

*Q* Please supply the value of reported pIC50 for the item CC1C(=O)N(CCCN2CCC3(CC3)[C@H](O)C2)CCN1c1cccc(I)c1 (stereo partly drawn)
*A* 7.46

*Q* Please supply the value of reported pIC50 for the item COC(=O)C(CCN1CCC2(CC2)[C@H](O)C1)N1CCN(c2cccc(OC(F)(F)F)c2)C(C)C1=O (stereo partly drawn)
*A* 8.00

*Q* Please supply the value of reported pIC50 for the item CC1C(=O)N(C(CO)CCN2CCC3(CC3)[C@H](O)C2)CCN1c1cccc(OC(F)(F)F)c1 (stereo partly drawn)
*A* 8.30

For every record below, what is its pIC50?
1. CN(C)C(=O)[C@H](CCN1CCC2(CC2)[C@H](O)C1)N1CCN(c2cccc(C(F)(F)F)c2)CCC1=O
2. C[C@H]1C(=O)N(CCCCN2CCC3(CC3)[C@H](O)C2)CCN1c1ccc(Cl)c(Cl)c1
3. C[C@H]1C(=O)N(CCCN2CCC3(CC3)[C@H](O)C2)CCN1c1ccc(F)c(OC(F)(F)F)c1
4. COC(=O)[C@H](CCN1CCC2(CC2)[C@H](O)C1)N1CCN(c2cccc(C(F)(F)F)c2)CCC1=O

*A*
7.00
8.10
7.48
7.70

For every record below, what is its pIC50?
1. C[C@H]1C(=O)N(CCCN2CCC3(CC3)[C@H](O)C2)CCN1c1ccc(C(F)(F)F)c(Cl)c1
2. COC(=O)[C@H](CCN1CCC2(CC2)[C@H](O)C1)N1CCN(c2cccc(Cl)c2)CCC1=O
3. CC1C(=O)N(CC2CCCN(C)C2)CCN1c1cccc(C(F)(F)F)c1 (stereo not drawn)
4. COC[C@H](CCN1C[C@@H](C)C[C@H](O)C1)N1CCN(c2cccc(C(F)(F)F)c2)CCC1=O
5. C[C@H]1C(=O)N(CCCN2CCC3(CC3)[C@H](O)C2)CCN1c1ccc2ccccc2c1
6. O=C1CCN(c2cccc(C(F)(F)F)c2)CCN1CCCN1CCC(O)(c2ccccc2)CC1
7. C[C@H]1C(=O)N(CCCN2CCCCC2)CCN1c1cccc(C(F)(F)F)c1
8. C[C@H]1C(=O)N(CCCN2CCC3(CC3)[C@H](O)C2)CCN1c1ccc(C(F)(F)F)c(F)c1

*A*
[8.70, 6.89, 6.17, 7.05, 7.14, 6.03, 6.89, 8.22]

For every record below, what is its pIC50?
1. CN(C)C(=O)C(CCN1CCC2(CC2)[C@H](O)C1)N1CCN(c2cccc(C(F)(F)F)c2)CCC1=O (stereo partly drawn)
2. CC[C@H]1C(=O)N(CCCN2CCC3(CC3)[C@H](O)C2)CCN1c1ccc(Cl)c(Cl)c1
3. C[C@H]1C(=O)N(CCCN2CCC3(CC3)[C@H](O)C2)CCN1c1ccc(Cl)c(Cl)c1
4. C[C@H]1C(=O)N(CCCN2CCC3(CC3)[C@H](O)C2)CCN1c1ccc(F)c(C(F)(F)F)c1
5. C[C@H]1C(=O)N(CCCN2CCC3(CC3)[C@H](O)C2)CCN1c1ccc(F)c(Cl)c1

*A*
[6.85, 7.28, 8.30, 7.89, 7.54]

Cited source for all entries: patent US8138175B2
